# SUBJECT OF TEST: purified tubulin (Sus scrofa, UniProt P02550+P02554)
# Sequence (P02554 whole entry): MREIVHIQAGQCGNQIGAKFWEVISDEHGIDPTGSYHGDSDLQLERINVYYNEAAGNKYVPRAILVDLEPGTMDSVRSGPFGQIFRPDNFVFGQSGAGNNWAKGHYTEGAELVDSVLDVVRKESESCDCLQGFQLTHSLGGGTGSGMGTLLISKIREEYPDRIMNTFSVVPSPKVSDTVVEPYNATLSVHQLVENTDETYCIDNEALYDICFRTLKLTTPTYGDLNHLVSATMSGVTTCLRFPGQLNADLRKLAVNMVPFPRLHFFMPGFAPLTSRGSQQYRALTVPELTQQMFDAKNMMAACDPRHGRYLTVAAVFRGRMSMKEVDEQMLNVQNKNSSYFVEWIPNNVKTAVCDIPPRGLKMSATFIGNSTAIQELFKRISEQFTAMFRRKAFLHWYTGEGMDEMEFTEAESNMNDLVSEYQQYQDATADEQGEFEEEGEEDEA
# Sequence (P02550 whole entry): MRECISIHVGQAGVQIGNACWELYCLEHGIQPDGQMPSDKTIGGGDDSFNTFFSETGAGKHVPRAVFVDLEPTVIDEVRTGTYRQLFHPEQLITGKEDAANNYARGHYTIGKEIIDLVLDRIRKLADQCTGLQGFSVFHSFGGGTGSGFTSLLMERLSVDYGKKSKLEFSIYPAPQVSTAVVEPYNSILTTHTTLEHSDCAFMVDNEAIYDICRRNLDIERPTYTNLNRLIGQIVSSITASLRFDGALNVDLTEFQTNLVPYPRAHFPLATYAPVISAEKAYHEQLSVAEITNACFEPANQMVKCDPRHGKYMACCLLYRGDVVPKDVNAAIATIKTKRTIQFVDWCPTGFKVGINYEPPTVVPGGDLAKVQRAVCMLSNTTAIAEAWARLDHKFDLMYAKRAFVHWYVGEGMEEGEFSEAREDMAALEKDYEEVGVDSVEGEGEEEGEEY
# TEST PROTOCOL: Tubulin polymerisation assay (CytoDYNAMIX Screen kit, absorbance at 340 nm)
# SETUP CONDITIONS: tubulin polymerization
Counter-ions that a name gives are not always drawn.
For each record, write down the corresponding pIC50.
Hey, just a heads up that pIC50 is the negative log base 10 of the concentration in molar.

-- ask Any idea what pIC50 was measured for CCOc1ccc2c(Cc3cc(OC)c(OC)c(OC)c3)cncc2c1OS(N)(=O)=O [Compound 21, hydrochloride] ?
-- reply 5.96

-- ask Can you share its pIC50? I mean this compound: CCOc1ccc2c(Cc3cc(OC)c(OCC(C)C)c(OC)c3)cncc2c1O [Compound 20, hydrochloride]
-- reply 5.82

-- ask Entry CCOc1ccc2c(C(=O)c3cc(OC)c(OCC)c(OC)c3)cncc2c1O [Compound 56, hydrochloride] has what pIC50?
-- reply 5.71

-- ask Which pIC50 value is on record for COc1ccc(/C=C\c2cc(OC)c(OC)c(OC)c2)cc1NC(=O)[C@@H](N)CO [AVE8062, reference compound] ?
-- reply 5.75

###

Provide the reported IC50 of each item.
# SUBJECT OF TEST: purified tubulin (Sus scrofa, UniProt P02550+P02554)
# TEST PROTOCOL: Tubulin polymerisation assay (CytoDYNAMIX Screen kit, absorbance at 340 nm)
# SETUP CONDITIONS: tubulin polymerization
Where a name gives a salt, the structure may show the parent alone.
Reply with just the number (in nM).

-- ask Any idea what its IC50 is? The molecule is COc1cc(C(=O)c2c(C)oc3c(O)c(OC)ccc23)cc(OC)c1OC [BNC105, reference compound]
-- reply 1780

-- ask Given C=CCOc1c(OC)cc(Cc2cncc3c(O)c(OCC)ccc23)cc1OC [Compound 32, hydrochloride] , state its recorded IC50.
-- reply 1500

-- ask Name the reported IC50 value associated with the molecule CCOc1ccc2c(Cc3cc(OC)c(OCC(C)C)c(OC)c3)cncc2c1N [Compound 31, dihydrochloride]
-- reply 1540

###

# SUBJECT OF TEST: purified tubulin (Sus scrofa, UniProt P02550+P02554)
# Construct: purchased Cytoskeleton #BK006P
# TEST PROTOCOL: Tubulin polymerisation assay (CytoDYNAMIX Screen kit, absorbance at 340 nm)
# Assay type: biochemical
# SETUP CONDITIONS: 5 μM compound, 4 mg/ml tubulin; read-out: % Inhibition of tubulin polymerization at 5 μM
Counter-ions that a name gives are not always drawn.
Could you please report measured inhibition at 5 µM for the items listed next?
The figure you give is taken to be in %; do not add the unit.

-- ask Please give the measured inhibition at 5 µM for this compound: CCOc1ccc2c(C(=O)c3cc(OC)c(OC)c(OC)c3)cncc2c1 [Compound 40, hydrochloride]
-- reply 58.8

-- ask Entry under review: CCOc1ccc2c(Cc3cc(OC)c(OCC)c(OC)c3)cncc2c1N [Compound 18, dihydrochloride] . Reported inhibition at 5 µM?
-- reply 61.4

-- ask Would you mind telling me what inhibition at 5 µM value was observed for CCOc1cc(Cc2cncc3c(O)c(OCC)ccc23)cc(OC)c1OC [Compound 15, hydrochloride] ?
-- reply 69

-- ask I'd like to know its inhibition at 5 µM. The compound in question is CCCOc1c(OC)cc(Cc2cncc3c(O)c(OCC)ccc23)cc1OC [Compound 19, hydrochloride]
-- reply 61.9

-- ask Requested field: inhibition at 5 µM. Item: CCOc1ccc2c(Cc3cc(OC)c(OCCC(C)C)c(OC)c3)cncc2c1O [Compound 33, hydrochloride]
-- reply 59

-- ask Bench note: what inhibition at 5 µM did CCOc1ccc2c(Cc3cc(OC)c(OC)c(OC)c3)cncc2c1N [Compound 3, dihydrochloride] show?
-- reply 76.6

-- ask Requested read-out: inhibition at 5 µM. Entry: COc1ccc2c(C(=O)c3cc(OC)c(OC)c(OC)c3)cncc2c1 [Compound 28, hydrochloride]
-- reply 44.5

-- ask Returns the measured inhibition at 5 µM for the input compound. Input: COc1ccc(/C=C\c2cc(OC)c(OC)c(OC)c2)cc1O [Combretastatin, reference compound]
-- reply 68.9

-- ask Entry CCOc1ccc2c(C(=O)c3cc(OC)c(OC)c(OC)c3)cncc2c1O [Compound 97, hydrochloride] : reported inhibition at 5 µM = ?
-- reply 4

-- ask Value lookup for inhibition at 5 µM; key = CCCCOc1c(OC)cc(Cc2cncc3c(O)c(OCC)ccc23)cc1OC [Compound 38, hydrochloride]
-- reply 67.4

-- ask # get_value(readout='inhibition at 5 µM', item= CCOc1ccc2c(C(=O)c3cc(OC)c(OCC)c(OC)c3)cncc2c1O [Compound 56, hydrochloride] )
-- reply 65.1

-- ask Item COc1ccc(/C=C\c2cc(OC)c(OC)c(OC)c2)cc1NC(=O)[C@@H](N)CO [AVE8062, reference compound] has what recorded inhibition at 5 µM?
-- reply 59.8

-- ask May I ask what inhibition at 5 µM has been recorded for CCOc1ccc2c(C(=O)c3cc(OC)c(OC)c(OC)c3)cncc2c1OP(=O)(O)O ?
-- reply 49

-- ask For the compound CCOc1ccc2c(C(=O)c3cc(OC)c(OC)c(OC)c3)cncc2c1OC(C)=O , what inhibition at 5 µM is on record?
-- reply 54.5

-- ask GET /values?readout=inhibition at 5 µM&item= CCOc1ccc2c(C(=O)c3cc(OC)c(OC)c(OC)c3)cncc2c1N [Compound 29, hydrochloride]
-- reply 71.3

-- ask Which value of inhibition at 5 µM has been reported for CCOc1ccc2c(C(=O)c3cc(OC)c(OCC)c(OC)c3)cncc2c1NS(N)(=O)=O in the records?
-- reply 21.5

-- ask Given CC[C@]1(O)C[C@@H]2CN(CCc3c([nH]c4ccccc34)[C@@](C(=O)OC)(c3cc4c(cc3OC)N(C)[C@H]3[C@@](O)(C(=O)OC)[C@H](OC(C)=O)[C@]5(CC)C=CCN6CC[C@]43[C@@H]65)C2)C1 [Vinblastine, reference compound] , state its recorded inhibition at 5 µM.
-- reply 77.7

-- ask For the compound C=CCOc1c(OC)cc(Cc2cncc3c(O)c(OCC)ccc23)cc1OC [Compound 32, hydrochloride] , what inhibition at 5 µM is on record?
-- reply 63.4

-- ask Recorded inhibition at 5 µM for CCOc1ccc2c(Cc3cc(OC)c(OCC(C)C)c(OC)c3)cncc2c1N [Compound 31, dihydrochloride] , please?
-- reply 55.4

-- ask // inhibition at 5 µM lookup, key: CCOc1ccc2c(C(=O)c3cc(OC)c(OCC)c(OC)c3)cncc2c1OS(N)(=O)=O
-- reply 17

-- ask I would be grateful if you could share the reported inhibition at 5 µM for CCOc1ccc2c(Cc3cc(OC)c(OCC(C)C)c(OC)c3)cncc2c1O [Compound 20, hydrochloride] .
-- reply 56.9

-- ask So what's the measured inhibition at 5 µM for this one? CCOc1ccc2c(Cc3cc(OC)c(OC)c(OC)c3)cncc2c1O [Compound 1, hydrochloride]
-- reply 85

-- ask Give its inhibition at 5 µM value. Item: CCOc1ccc2c(C(=O)c3cc(OC)c(OCC)c(OC)c3)cncc2c1N [Compound 58, hydrochloride]
-- reply 38.2

-- ask Looking for the measured inhibition at 5 µM of CCOc1ccc2c(C(=O)c3cc(OC)c(OC)c(OC)c3)cncc2c1NS(N)(=O)=O [Compound 105, hydrochloride] , can you help?
-- reply 35

-- ask // query inhibition at 5 µM value for entry CCOc1ccc2c(Cc3cc(OC)c(OCC(F)(F)F)c(OC)c3)cncc2c1O [Compound 30, hydrochloride]
-- reply 21

###

# Test system: K562 cell line
# TEST PROTOCOL: MTT assay: cytotoxicity against the K562 cell line
# Assay type: cell-based
# SETUP CONDITIONS: Homo sapiens, K562 cells, 72 h, growth inhibition
# Procedure: Assessment of Cell Viability via MTT Assay: Cytotoxicity of compounds against the K562 cell line was assessed using the [3-(4,5-dimethylthiazol-2-yl)-2,5-diphenyl tetrazolium bromide] (MTT) assay. […] After 72 h, the number of metabolically active cells was determined by MTT assay. Absorbance of each well was measured at 550 nm on a Tecan Sunrise reader. […] IC50 was determined by nonlinear regression (Prism, Graph Pad Software, Inc.).
Where a name gives a salt, the structure may show the parent alone.
I'd appreciate it if you could supply IC50 values for the items below.
Form field: result (number plus unit)

-- ask Reported IC50, molecule CCOc1ccc2c(Cc3cc(OC)c(OC)c(OC)c3)cncc2c1NCC(=O)OC [Compound 93, dihydrochloride] : ____
-- reply 334 nM

-- ask Endpoint output: IC50 of CCOc1ccc2c(Cc3cc(OC)c(Nc4ccccc4)c(OC)c3)cncc2c1O [Compound 52, hydrochloride] . Value?
-- reply 118 nM

-- ask Given the molecule CCOc1ccc2c(Cc3cc(OC)c(OCCC(C)C)c(OC)c3)cncc2c1O [Compound 33, hydrochloride] , what is its reported IC50?
-- reply 160 nM

-- ask Entry under review: CCOc1ccc2c(C(=O)c3cc(OC)c(OC)c(OC)c3)cncc2c1OC(=O)C(C)(C)C . Reported IC50?
-- reply 67.9 nM

-- ask Any idea what its IC50 is? The molecule is CCOc1ccc2c(C(=O)c3cc(OC)c(OC)c(OC)c3)cncc2c1NC(=O)CN
-- reply 7.9 nM

-- ask Need IC50 of CCOc1ccc2c(C(=O)c3cc(OC)c(OC)c(OC)c3)cncc2c1 [Compound 40, hydrochloride] , thanks.
-- reply 19.6 nM

-- ask # get_value(readout='IC50', item= COc1ccc2c(C(=O)c3cc(OC)c(OC)c(OC)c3)cncc2c1 [Compound 28, hydrochloride] )
-- reply 42.1 nM

-- ask For the molecule shown here, CCOc1ccc2c(C(=O)c3cc(OC)c(OC)c(OC)c3)cncc2c1NC(=O)[C@@H](N)Cc1ccccc1 [Compound 114, dihydrochloride] , give the reported IC50.
-- reply 92.6 nM

-- ask What value of IC50 has been reported for the following molecule? CCOc1ccc2c(Cc3cc(OC)c(OC)c([N+](=O)[O-])c3)cncc2c1O [Compound 103, hydrochloride]
-- reply 138 nM

-- ask What value of IC50 has been reported for the following molecule? CCOc1ccc2c(C(=O)c3cc(OC)c(OCC)c(OC)c3)cncc2c1N [Compound 58, hydrochloride]
-- reply 1.23 nM

-- ask # IC50 lookup, item CCOc1ccc2c(Cc3cc(I)c(OC)c(I)c3)cncc2c1O [Compound 70, hydrochloride]
-- reply 92.8 nM

-- ask IC50 for CCOc1ccc2c(C(=O)c3cc(OC)c(OC)c(OC)c3)cncc2c1OP(=O)(O)O ?
-- reply 7.57 nM

-- ask Value lookup for IC50; key = CCOc1ccc2c(Cc3cc(OC)c(OCC#N)c(OC)c3)cncc2c1O [Compound 50, hydrochloride]
-- reply 69.8 nM

-- ask Please look up its IC50: CCOc1ccc2c(Cc3cc(OC)c(OCC(C)C)c(OC)c3)cncc2c1O [Compound 20, hydrochloride]
-- reply 20.8 nM

-- ask Consider the molecule shown here: CCOc1ccc2c(Cc3cc(OC)c(OCC(C)(C)C)c(OC)c3)cncc2c1O [Compound 39, hydrochloride] What is its recorded IC50?
-- reply 400 nM

-- ask For the molecule shown here, COc1ccc(N(C)c2nc(C)nc3ccccc23)cc1 [Azixa, reference compound] , give the reported IC50.
-- reply 2.15 nM

-- ask Recorded IC50 of CCOc1ccc2c(C(=O)c3cc(OC)c(OC)c(OC)c3)cncc2c1NS(=O)(=O)NC(=O)OC(C)(C)C , please.
-- reply 38.8 nM

-- ask For the molecule CCOc1ccc2c(C(=O)c3cc(OC)c(OC)c(OC)c3)cncc2c1O [Compound 97, hydrochloride] , what IC50 is on record?
-- reply 4.86 nM

-- ask Entry CCOc1ccc2c(C(=O)c3cc(OC)c(OCC(C)C)c(OC)c3)cncc2c1OC(C)=O has what IC50?
-- reply 7.02 nM

-- ask # IC50 lookup, item CCOc1ccc2c(C(=O)c3cc(OC)c(OC)c(OC)c3)cncc2c1NC(C)=O [Compound 111, hydrochloride]
-- reply 96.8 nM

-- ask Form field: reported IC50 of CCOc1ccc2c(Cc3cc(OC)c(OCC(F)(F)F)c(OC)c3)cncc2c1O [Compound 30, hydrochloride]
-- reply 63.8 nM

-- ask Fill in: IC50 of CCOc1ccc2c(Cc3cc(OC)c(OC)c(OC)c3)cncc2c1NS(N)(=O)=O [Compound 8, hydrochloride] is ___
-- reply 53.4 nM

-- ask Look at this molecule and give its reported IC50. CC(=O)O[C@H]1C(=O)[C@@]2(C)[C@H]([C@H](OC(=O)c3ccccc3)[C@]3(O)C[C@H](OC(=O)[C@H](O)[C@@H](NC(=O)c4ccccc4)c4ccccc4)C(C)=C1C3(C)C)[C@]1(OC(C)=O)CO[C@@H]1C[C@@H]2O [Taxol, reference compound]
-- reply 6.9 nM

-- ask Can you share its IC50? I mean this molecule: CCOc1ccc2c(Cc3cc(OC)c(OC)c(OC)c3)cncc2c1NC [Compound 92, dihydrochloride]
-- reply 943 nM
